- system-under-test: Fibroblast growth factor receptor 3 (Homo sapiens, UniProt P22607, K650M)
- Sequence (P22607 23-806 K650M limits assumed): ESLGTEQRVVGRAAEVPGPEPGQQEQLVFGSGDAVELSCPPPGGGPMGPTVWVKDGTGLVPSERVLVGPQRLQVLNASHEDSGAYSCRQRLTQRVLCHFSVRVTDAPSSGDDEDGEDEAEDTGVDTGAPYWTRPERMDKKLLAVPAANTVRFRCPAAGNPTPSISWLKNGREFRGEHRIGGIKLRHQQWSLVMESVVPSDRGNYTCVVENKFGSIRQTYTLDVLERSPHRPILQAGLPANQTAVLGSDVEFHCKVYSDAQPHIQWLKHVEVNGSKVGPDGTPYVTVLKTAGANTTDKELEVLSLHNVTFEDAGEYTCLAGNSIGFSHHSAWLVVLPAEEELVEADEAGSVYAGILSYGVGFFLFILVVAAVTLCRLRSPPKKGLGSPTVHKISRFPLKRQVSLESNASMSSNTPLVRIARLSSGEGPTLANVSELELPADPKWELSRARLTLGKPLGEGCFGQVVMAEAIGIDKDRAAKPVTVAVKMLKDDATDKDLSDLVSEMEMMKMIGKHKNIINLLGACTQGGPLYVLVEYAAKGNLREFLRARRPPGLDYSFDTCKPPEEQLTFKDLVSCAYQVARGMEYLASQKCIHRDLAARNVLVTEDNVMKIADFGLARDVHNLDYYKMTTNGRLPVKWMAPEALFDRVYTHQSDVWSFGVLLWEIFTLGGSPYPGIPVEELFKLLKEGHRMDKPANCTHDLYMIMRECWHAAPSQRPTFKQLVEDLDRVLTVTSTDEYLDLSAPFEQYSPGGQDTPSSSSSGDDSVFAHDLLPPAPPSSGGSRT
- assay-method-text: Inhibition of FGFR3 K650M mutant (unknown origin) by mobility shift assay
pIC50: −log10 of the molar value.

[
  {
    "record-smiles": "C[C@@H](Oc1ccc2[nH]nc(-c3ccc(N4CC5(C4)CN(S(C)(=O)=O)C5)nc3)c2c1)c1c(Cl)cncc1Cl",
    "pIC50": 8.64
  }
]

###

- assay-method-text: Inhibition of recombinant BCR/FGFR4 (unknown origin) transduced in mouse BaF3 cells incubated for 48 hrs by Cell Titer Glo assay
- Assay type: cell-based
- assay-setup: BaF3, 48 h

[
  {
    "compound": "C[C@@H](Oc1ccc2[nH]nc(-c3ccc(N4CCOCC4)nc3)c2c1)c1c(Cl)cncc1Cl",
    "readout-unit": "nM",
    "IC50": 1230
  },
  {
    "compound": "C[C@@H](Oc1ccc2[nH]nc(-c3cnc(N4CC5(C4)CN(S(C)(=O)=O)C5)cn3)c2c1)c1c(Cl)cncc1Cl",
    "readout-unit": "nM",
    "IC50": 21
  },
  {
    "compound": "C[C@@H](Oc1ccc2[nH]nc(-c3ccc(N4CCN(C(=O)N(C)C)CC4)nc3)c2c1)c1c(Cl)cncc1Cl",
    "readout-unit": "nM",
    "IC50": 307
  },
  {
    "compound": "Cc1cncc(C)c1[C@@H](C)Oc1ccc2[nH]nc(-c3ccc(N4CC5(C4)CN(S(C)(=O)=O)C5)nc3)c2c1",
    "readout-unit": "nM",
    "IC50": 52
  },
  {
    "compound": "COc1cc2[nH]nc(-c3ccc(N4CC5(C4)CN(S(C)(=O)=O)C5)nc3)c2cc1O[C@H](C)c1c(Cl)cncc1Cl",
    "readout-unit": "nM",
    "IC50": 4.5
  },
  {
    "compound": "COc1cc(OC)cc(N(CCNC(C)C)c2ccc3ncc(-c4cnn(C)c4)nc3c2)c1 [ERDAFITINIB]",
    "readout-unit": "nM",
    "IC50": 11
  },
  {
    "compound": "C[C@@H](Oc1ccc2[nH]nc(-c3ccc(N4CC5(CCCS(=O)(=O)C5)C4)nc3)c2c1)c1c(Cl)cncc1Cl",
    "readout-unit": "nM",
    "IC50": 17
  },
  {
    "compound": "C[C@@H](Oc1ccc2[nH]nc(-c3ccc(N4CC5(CCN(S(C)(=O)=O)CC5)C4)nc3)c2c1)c1c(Cl)cncc1Cl",
    "readout-unit": "nM",
    "IC50": 147
  },
  {
    "compound": "C[C@@H](Oc1ccc2[nH]nc(-c3ccc(N4CCN(C)CC4)nc3)c2c1)c1c(Cl)cncc1Cl",
    "readout-unit": "nM",
    "IC50": 27
  },
  {
    "compound": "CCS(=O)(=O)N1CC2(CN(c3ccc(-c4n[nH]c5ccc(O[C@H](C)c6c(Cl)cncc6Cl)cc45)cn3)C2)C1",
    "readout-unit": "nM",
    "IC50": 529
  },
  {
    "compound": "C[C@@H](Oc1ccc2[nH]nc(-c3ccc(N4CC5(CCS(=O)(=O)C5)C4)nc3)c2c1)c1c(Cl)cncc1Cl",
    "readout-unit": "nM",
    "IC50": 106
  },
  {
    "compound": "C[C@@H](Oc1ccc2[nH]nc(-c3cnc(N4CC5(C4)CN(S(C)(=O)=O)C5)nc3)c2c1)c1c(Cl)cncc1Cl",
    "readout-unit": "nM",
    "IC50": 128
  },
  {
    "compound": "C[C@@H](Oc1ccc2[nH]nc(-c3ccc(N4CC5(CN(C(=O)N(C)C)C5)C4)nc3)c2c1)c1c(Cl)cncc1Cl",
    "readout-unit": "nM",
    "IC50": 469
  },
  {
    "compound": "CC(C)N1CC2(CN(c3ccc(-c4n[nH]c5ccc(O[C@H](C)c6c(Cl)cncc6Cl)cc45)cn3)C2)C1",
    "readout-unit": "nM",
    "IC50": 22
  },
  {
    "compound": "C[C@@H](Oc1cc2c(-c3ccc(N4CC5(C4)CN(S(C)(=O)=O)C5)nc3)n[nH]c2cc1F)c1c(Cl)cncc1Cl",
    "readout-unit": "nM",
    "IC50": 40
  },
  {
    "compound": "C[C@@H](Oc1ccc2[nH]nc(-c3ccc(N4CCC5(CC4)CN(C)CC(=O)N5)nc3)c2c1)c1c(Cl)cncc1Cl",
    "readout-unit": "nM",
    "IC50": 298
  },
  {
    "compound": "C[C@@H](Oc1ccc2[nH]nc(-c3ccc(N4CC5(CCS(=O)(=O)CC5)C4)nc3)c2c1)c1c(Cl)cncc1Cl",
    "readout-unit": "nM",
    "IC50": 169
  },
  {
    "compound": "C[C@@H](Oc1ccc2[nH]nc(-c3ccc(N4CCN(S(C)(=O)=O)CC4=O)nc3)c2c1)c1c(Cl)cncc1Cl",
    "readout-unit": "nM",
    "IC50": 412
  },
  {
    "compound": "C[C@@H](Oc1ccc2[nH]nc(-c3ccc(N4CC5(C4)CN(S(C)(=O)=O)C5)nn3)c2c1)c1c(Cl)cncc1Cl",
    "readout-unit": "nM",
    "IC50": 278
  },
  {
    "compound": "C[C@@H](Oc1ccc2[nH]nc(-c3ccc(N4CCC5(CCOC5)CC4)nc3)c2c1)c1c(Cl)cncc1Cl",
    "readout-unit": "nM",
    "IC50": 835
  },
  {
    "compound": "C[C@@H](Oc1ccc2[nH]nc(-c3ccc(N4CCN(C(=O)N5CCN(C)CC5)CC4)nc3)c2c1)c1c(Cl)cncc1Cl",
    "readout-unit": "nM",
    "IC50": 148
  },
  {
    "compound": "COC(=O)N1CCN(c2ccc(-c3n[nH]c4ccc(O[C@H](C)c5c(Cl)cncc5Cl)cc34)cn2)CC1",
    "readout-unit": "nM",
    "IC50": 591
  },
  {
    "compound": "C[C@@H](Oc1cc2c(-c3ccc(N4CC5(C4)CN(S(C)(=O)=O)C5)nc3)n[nH]c2cc1Cl)c1c(Cl)cncc1Cl",
    "readout-unit": "nM",
    "IC50": 37
  },
  {
    "compound": "C[C@@H](Oc1ccc2[nH]nc(-c3ccc(N4CCC5(CC4)CCS(=O)(=O)C5)nc3)c2c1)c1c(Cl)cncc1Cl",
    "readout-unit": "nM",
    "IC50": 577
  },
  {
    "compound": "C[C@@H](Oc1ccc2[nH]nc(-c3ccc(N4CC5(CCN(S(C)(=O)=O)C5)C4)nc3)c2c1)c1c(Cl)cncc1Cl",
    "readout-unit": "nM",
    "IC50": 177
  }
]

// data source = ChEMBL document CHEMBL5579895
